target_or_system: Thromboxane A2 receptor (Homo sapiens)
Sequence (P21731 whole entry): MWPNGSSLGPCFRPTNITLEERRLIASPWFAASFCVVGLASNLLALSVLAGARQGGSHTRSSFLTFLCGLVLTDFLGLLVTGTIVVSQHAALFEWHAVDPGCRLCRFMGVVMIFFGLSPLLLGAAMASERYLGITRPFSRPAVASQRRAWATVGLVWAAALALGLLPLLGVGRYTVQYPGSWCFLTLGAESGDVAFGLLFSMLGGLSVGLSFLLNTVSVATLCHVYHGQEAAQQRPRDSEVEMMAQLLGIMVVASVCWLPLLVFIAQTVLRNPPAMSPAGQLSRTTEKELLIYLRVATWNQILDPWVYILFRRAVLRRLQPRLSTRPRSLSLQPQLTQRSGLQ
assay_procedure: Antagonist activity at human thromboxane A2 receptor isoform alpha expressed in HEK293 cells assessed as inhibition of U46619-induced calcium mobilization
Format: functional, cell-based
recorded_endpoint: IC50 (nM)

Field: example entries. Status: answers known.
[
  {
    "compound_structure_string": "CCOc1ccc(Oc2ccc([N+](=O)[O-])cc2S(=O)(=O)NC(=O)NC(C)(C)C)cc1",
    "unit_label": "nM",
    "test_value": 19200
  },
  {
    "compound_structure_string": "Cc1ccc(Oc2ccc([N+](=O)[O-])cc2S(=O)(=O)NC(=O)NC(C)C)cc1",
    "unit_label": "nM",
    "test_value": 8760
  },
  {
    "compound_structure_string": "CCCCCNC(=O)NS(=O)(=O)c1cc([N+](=O)[O-])ccc1Oc1cccc(Cl)c1",
    "unit_label": "nM",
    "test_value": 2390
  },
  {
    "compound_structure_string": "CCCCNC(=O)NS(=O)(=O)c1cc([N+](=O)[O-])ccc1Oc1ccccc1C",
    "unit_label": "nM",
    "test_value": 673
  },
  {
    "compound_structure_string": "COc1cccc(Oc2ccc([N+](=O)[O-])cc2S(=O)(=O)NC(=O)NC(C)(C)C)c1",
    "unit_label": "nM",
    "test_value": 1970
  },
  {
    "compound_structure_string": "Cc1ccccc1Oc1ccc([N+](=O)[O-])cc1S(=O)(=O)NC(=O)NC(C)C",
    "unit_label": "nM",
    "test_value": 8750
  }
]

(a) CCCCCNC(=O)NS(=O)(=O)c1cc([N+](=O)[O-])ccc1Oc1ccccc1C
(b) CCCNC(=O)NS(=O)(=O)c1cc([N+](=O)[O-])ccc1Oc1ccc(C)cc1
Input line: Given the two records a and b , choose the one whose IC50 value is lower. Answer with the label corresponding to your selection.
Output line: a
(a: 1630 nM, b: 4220 nM)

(P) CCCCCNC(=O)NS(=O)(=O)c1cc([N+](=O)[O-])ccc1Oc1ccc(OCCC)cc1
(Q) CCCCCNC(=O)NS(=O)(=O)c1cc([N+](=O)[O-])ccc1Oc1cccc(I)c1
(R) CCCOc1ccc(Oc2ccc([N+](=O)[O-])cc2S(=O)(=O)NC(=O)NC(C)(C)C)cc1
(S) CCCCCNC(=O)NS(=O)(=O)c1cc([N+](=O)[O-])ccc1Oc1ccc(Br)cc1
Input line: Please give the order of these compounds when sorted by IC50, largest value leading. API: response body holds the labels in the requested order.
Output line: P, R, Q, S
